Data origin: patent US8557816B2

target: AuroraB (Homo sapiens); construct: 20 μL of AuroraB FL H is for a final volume of 41 μL; His; test: AuroraB Homogeneous Time Resolved Fluorescent (HTRF) kinase assay; assay type: biochemical; conditions: average; read-out: AurB_IC50_IP (uM Avg)
Sequence (Q96GD4 whole entry): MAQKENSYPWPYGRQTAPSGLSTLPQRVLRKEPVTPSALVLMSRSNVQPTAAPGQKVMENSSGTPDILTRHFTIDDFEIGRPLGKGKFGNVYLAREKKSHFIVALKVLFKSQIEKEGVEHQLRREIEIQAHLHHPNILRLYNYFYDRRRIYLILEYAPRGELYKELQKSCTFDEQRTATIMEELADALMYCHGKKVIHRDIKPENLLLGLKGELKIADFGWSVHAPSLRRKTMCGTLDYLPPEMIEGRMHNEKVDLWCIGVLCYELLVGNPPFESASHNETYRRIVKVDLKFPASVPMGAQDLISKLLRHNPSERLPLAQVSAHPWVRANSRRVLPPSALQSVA
Mark each entry True if its IC50 sits below 0.007 µM, and False for all others.

Please review the entries below; each comes with its answer.
Asked: Given the entry `Cc1ccc(-c2nnc(Nc3ccc(Sc4ccnc5ccoc45)cc3)c3ccccc23)nc1` , would its reported IC50 be below 0.007 µM?
Given back: True

Asked: Bench note: check whether `Clc1ccc(-c2nnc(Nc3ccc(Sc4ccnc5[nH]cnc45)cc3)c3ccccc23)cc1` shows IC50 below 0.007 µM
Given back: False

Asked: Answer whether the molecule `COc1cnc2c(Oc3ccc(Nc4nnc(-c5ccc(C)c(F)c5)c5ccccc45)cc3)ccnc2c1` has IC50 strictly less than 0.007 µM
Given back: True

Asked: Please determine if COc1cnc2c([S+]([O-])c3ccc(Nc4nnc(-c5ccc(F)cc5)c5ccccc45)cc3)ccnc2c1 (centres unmarked) is below 0.007 µM in terms of IC50.
Given back: False

Asked: Could you please tell me whether IC50 recorded for `COc1cc2nccc(Oc3ccc(Nc4nnc(-c5ccc(C)c(C)c5)c5ccccc45)cc3)c2cc1OC` is less than 0.007 µM?
Given back: False

Asked: Please check: IC50 for `NC(=O)c1cc2nccc(Oc3ccc(Nc4nnc(-c5ccccc5)c5ccccc45)cc3F)c2s1` , strictly under 0.007 µM or not?
Given back: True

Continuing:
Asked: Lab note: IC50 threshold 0.007 µM. Does this molecule come in strictly under it? `COc1cnc2c(Oc3ccc(Nc4nnc(-c5ccccc5)c(C)c4C)cc3)ccnc2c1`
Given back: False
